For each record, write down the corresponding PBM binding z-score.
- System: PPARg DBDmut IVT, anti-PPARg (DBD mutation: PPARg1 K132A/R137A, NR concentration 270 nM)
- assay comment: PBM binding z-score (relative to random genomic background probes); higher = stronger binding; sequences stand for … in GC…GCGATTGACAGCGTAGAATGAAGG
Numbers only.

Worked cases, PBM binding z-score given:
| seq | study target | numeric result |
| --- | --- | --- |
| GCTATTAGTTGAAAGGGAAACCGAATGATTCTCG | PPARg DBDmut IVT, anti-PPARg (DBD mutation: PPARg1 K132A/R137A, NR concentration 270 nM) | 0.468 |
| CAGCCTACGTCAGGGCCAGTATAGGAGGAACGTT | PPARg DBDmut IVT, anti-PPARg (DBD mutation: PPARg1 K132A/R137A, NR concentration 270 nM) | -0.405 |
| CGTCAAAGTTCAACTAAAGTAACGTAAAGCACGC | PPARg DBDmut IVT, anti-PPARg (DBD mutation: PPARg1 K132A/R137A, NR concentration 270 nM) | 1.46 |
| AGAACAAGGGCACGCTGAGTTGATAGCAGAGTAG | PPARg DBDmut IVT, anti-PPARg (DBD mutation: PPARg1 K132A/R137A, NR concentration 270 nM) | 0.443 |

For each listed entry, give its PBM binding z-score.
1. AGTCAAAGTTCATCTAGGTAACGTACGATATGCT
2. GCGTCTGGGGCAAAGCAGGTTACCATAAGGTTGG
3. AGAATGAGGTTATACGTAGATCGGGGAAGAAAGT
4. ACTAGCAAGCCAAGTTTGGGTCACTCAAACAAAG
5. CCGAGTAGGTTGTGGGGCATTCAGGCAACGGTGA
6. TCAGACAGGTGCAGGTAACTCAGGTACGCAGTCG

(A)
1. 2.09
2. -1.14
3. -0.0447
4. -0.652
5. -0.659
6. -0.576

For each listed entry, give its PBM binding z-score.
1. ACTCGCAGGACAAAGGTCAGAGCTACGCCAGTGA
2. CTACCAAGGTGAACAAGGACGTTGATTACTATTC
3. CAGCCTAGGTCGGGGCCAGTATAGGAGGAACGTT
4. CGTCCAAGGTCAATGGTAGGTCAGTGAAAGCATT

(A)
[-0.29, 0.657, -1.04, -0.844]

For each listed entry, give its PBM binding z-score.
1. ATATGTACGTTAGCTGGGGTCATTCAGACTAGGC
2. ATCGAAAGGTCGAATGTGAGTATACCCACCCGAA
3. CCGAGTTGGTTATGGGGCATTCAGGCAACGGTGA
4. AATACCGGGTCATCGTAGGCCAGAGTACGCACAG
5. CCTACTGGGGCAAGGTCATTGATCAGTCAAAGCA
6. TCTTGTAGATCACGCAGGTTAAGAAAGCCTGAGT
7. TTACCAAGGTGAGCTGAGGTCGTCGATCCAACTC

(A)
1. 1.62
2. 0.649
3. -0.836
4. 2.08
5. 0.39
6. 0.645
7. -0.875

----------
- Tested on: RARb homodimer (NR concentration 270 nM)
- assay comment: PBM binding z-score (relative to random genomic background probes); higher = stronger binding; sequences stand for … in GC…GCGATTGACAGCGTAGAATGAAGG
Outcome label depends on PBM binding z-score relative to 2: at/above gives 1, below gives -1.

Solved entries (count: 4):
| seq | assigned category |
| --- | --- |
| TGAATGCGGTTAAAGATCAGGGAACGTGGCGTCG | -1 |
| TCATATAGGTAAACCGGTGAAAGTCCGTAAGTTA | -1 |
| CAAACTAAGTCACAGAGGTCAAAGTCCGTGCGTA | 1 |
| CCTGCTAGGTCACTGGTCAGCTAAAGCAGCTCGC | 1 |

(Q) PBM binding z-score >= 2 for `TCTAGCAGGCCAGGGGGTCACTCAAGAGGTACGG` ?
(A) 1

(Q) PBM binding z-score >= 2 for `TCATATAGGTAAACATGTGAAAGTCCGTAAGTTA` ?
(A) -1

(Q) PBM binding z-score >= 2 for `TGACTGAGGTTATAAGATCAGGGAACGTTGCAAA` ?
(A) -1

(Q) PBM binding z-score >= 2 for `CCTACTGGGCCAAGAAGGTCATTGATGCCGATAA` ?
(A) 1

(Q) PBM binding z-score >= 2 for `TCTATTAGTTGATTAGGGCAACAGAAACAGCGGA` ?
(A) -1

(Q) PBM binding z-score >= 2 for `CCTAGCAGGCCCATCTGGGTCACTCAAGGCTTGA` ?
(A) -1

(Q) PBM binding z-score >= 2 for `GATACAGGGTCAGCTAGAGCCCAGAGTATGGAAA` ?
(A) 1

(Q) PBM binding z-score >= 2 for `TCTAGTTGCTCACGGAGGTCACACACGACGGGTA` ?
(A) 1

Source: the supplement of paper PMC6555819
